Listing of entries alongside the reported Cmax.
Test: Cmax in squirrel monkey at 10 mg/kg
Type: ADME, organism-based, Saimiri sciureus
Design: dose 10 mg/kg
Conditions: in vivo
reported endpoint: Cmax (µM)

{"columns": ["molecule", "recorded measurement"],
 "data": [
  ["Cc1noc(/C(=C/c2cccc(-c3cc(C(C)(C)S(C)(=O)=O)cc4cccnc34)c2)c2ccc(S(C)(=O)=O)cc2)n1", 3.8],
  ["CC(C)(c1cc(-c2cccc(-c3ccc(C4CC4C(=O)O)cc3)c2)c2ncccc2c1)S(C)(=O)=O (single isomer, unassigned)", 65]
]}

* * *

Assay: Half life in rat
Type: ADME, organism-based
Conditions: in vivo
I'd appreciate it if you marked entries met when half-life is lower than 1 h and not met when it is not.

{"columns": ["compound", "discrete label"],
 "data": [
  ["CC(C)(c1cc(-c2cccc(-c3ccc(CC(=O)O)cc3)c2)c2ncccc2c1)S(C)(=O)=O", "met"],
  ["CC(C)(c1cc(-c2cccc(-c3ccc(C4CC4C(=O)O)cc3)c2)c2ncccc2c1)S(C)(=O)=O (single isomer, unassigned)", "not met"],
  ["CC(C)(c1cc(-c2cccc(-c3cc(C(=O)NC4CC4)c[n+]([O-])c3)c2)c2ncccc2c1)S(C)(=O)=O", "met"],
  ["CC(C)(c1cc(-c2cccc(-c3ccc[n+]([O-])c3)c2)c2ncccc2c1)S(C)(=O)=O", "not met"],
  ["CC(C)(c1cc(-c2cccc(-c3ccc(CO)[n+]([O-])c3)c2)c2ncccc2c1)S(C)(=O)=O", "not met"],
  ["CC(C)(O)c1cc(-c2cccc(-c3cc(C(C)(C)S(C)(=O)=O)cc4cccnc34)c2)c[n+]([O-])c1", "met"],
  ["CC(C)NC(=O)Nc1ccc(-c2cccc(-c3cc(C(C)(C)S(C)(=O)=O)cc4cccnc34)c2)c[n+]1[O-]", "met"]
]}

Origin of measurements: ChEMBL document CHEMBL1141472
